# target_entity: T1, cynomolgus PSMA extracellular domain (PSMW1), 6His and Avi tag (cynomolgus, UniProt Q04609 44-750 (human entry), biotinylated in bead-based selections and the ELISA screen)
# T1 construct: Cloned along with a 6His and Avi tag; also called cynomolgus monkey PSMA; pan 230
# T1 chain: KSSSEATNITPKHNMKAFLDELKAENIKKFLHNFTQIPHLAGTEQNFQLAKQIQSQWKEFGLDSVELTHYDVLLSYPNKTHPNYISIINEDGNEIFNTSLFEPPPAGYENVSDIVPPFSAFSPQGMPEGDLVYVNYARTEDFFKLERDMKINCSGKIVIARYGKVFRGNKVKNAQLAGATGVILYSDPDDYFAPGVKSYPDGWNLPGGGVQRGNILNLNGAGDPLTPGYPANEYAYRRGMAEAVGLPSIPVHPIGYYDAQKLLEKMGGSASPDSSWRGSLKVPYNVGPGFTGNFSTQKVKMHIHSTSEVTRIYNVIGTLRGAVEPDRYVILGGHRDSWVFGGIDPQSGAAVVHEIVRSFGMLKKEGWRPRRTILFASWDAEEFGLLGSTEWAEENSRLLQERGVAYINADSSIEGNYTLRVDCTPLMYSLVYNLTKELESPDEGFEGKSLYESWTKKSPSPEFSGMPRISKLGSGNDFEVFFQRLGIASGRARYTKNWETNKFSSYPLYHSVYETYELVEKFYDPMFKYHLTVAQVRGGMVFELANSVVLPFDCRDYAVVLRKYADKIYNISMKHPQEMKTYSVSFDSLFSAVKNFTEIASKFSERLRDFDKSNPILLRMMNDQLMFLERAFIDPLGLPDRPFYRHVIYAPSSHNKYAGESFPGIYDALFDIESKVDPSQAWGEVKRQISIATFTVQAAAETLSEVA
# protocol_summary: hit from CIS-display panning and ELISA screen on PSMA of this species (column Antigen species)

binder: P258AR6P1071_G03 (designed binder, not shown: C-terminal poly-histidine tag) LPAPKNLVVSRVTEDSARLSWDIDEQRDWFDSFLIQYQESEKVGEAIVLTVPGSERSYDLTGLKPGTEYTVSIYGVYHVYRSNPLSAIFTT
binding result: binds
//
binder: P234CR9_H01 (designed binder, not shown: C-terminal poly-histidine tag) LPAPKNLVVSRVTEDSARLSWEWWVIPGDFDSFLIQYQESEKVGEAIVLTVPGSERSYDLTGLKPGTEYTVSIYGVVNSGQWNDTSNPLSAIFTT
binding result: binds
//
binder: P258AR6P1070_A05 (designed binder, not shown: C-terminal poly-histidine tag) LPAPKNLVVSRVTEDSARLSWTIDEQRDWFDSFLIQYQESEKVGEAIVLTVPGSERSYDLTGLKPGTEYTVSIYGVYHVYRSNPLSAIFTT
binding result: binds

All figures here come from patent US20160347840A1.
